src = PubChem BioAssay AID1159580

Listing of recorded normalized growth by entry.
assay: chemical genetic growth profiling, strain panel (AID 1159580);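 note: tested at 20 µM; growth read once vehicle control cultures reached saturation at 30 °C; 1 = growth at the plate median or of vehicle wells; lower values mean less growth of the strain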; details: S. cerevisiae deletion strains, growth OD, locus YJL164C, strain tpk1, stronger effect = lower value
The whole screen tested about 5,500 compounds, of which about 2,000 (36%) were called active. Another 18% or so got no clear call; they are omitted. This is one part of the list.
Property Name: normalized growth

Compound	Experimental Result
CCN(CC)CCOC(=O)c1ccc(N)cc1	0.961
C=CCCCCCCCCCCCC(O)CC(O)COC(C)=O (stereo not given) (tested in a mixture with another compound)	0.832
CC(C)NC[C@H](O)COc1cccc2ccccc12	0.989
CC1C[C@H]2CC(=O)[C@H]3CCCN4CCC[C@H]2[C@]34C1 (stereo not given in full)	1.01
CC(=O)OC1CCC2(C)C(=CC=C3C2CCC2(C)C3CCC2C(C)/C=C/C(C)C(C)C)C1(C)C (stereo not given)	1.01
Cc1ccc(Cl)c(Nc2ccccc2C(=O)O)c1Cl	0.866
CCCCOC(=O)c1ccc(N)cc1	0.871
CC(=O)OCC(OC(C)=O)C(OC(C)=O)C(OC(C)=O)C(OC(C)=O)C(COC(C)=O)OC(C)=O (stereo not given)	0.986
COc1cc2c(cc1OC)C1Cc3ccc(OC)c(OC)c3CN1CC2 (stereo not given)	0.99
CC(C)C(C)/C=C/C(C)C1CCC2C3=CC=C4CC(O)CCC4(C)C3CCC21C (stereo not given)	0.905
COc1ccc2c(c1OC)C(=O)OC2[C@H]1c2c(cc3c(c2OC)OCO3)CCN1C (stereo not given in full)	1.03
Oc1ccc(Cl)cc1Cc1cc(Cl)ccc1O	0.0647
O=C(O)c1ccccc1-c1c2cc(Br)c(=O)cc-2oc2[c]([Hg])c(O)c(Br)cc12	1.01
CO/N=C(\C(=O)NC1C(=O)N2C(C(=O)OC(C)OC(C)=O)=C(COC(N)=O)CSC12)c1ccco1 (stereo not given)	0.996
CCOC(=O)Nc1nc2ccccc2[nH]1	0.986

###

experiment: chemical genetic growth profiling, strain panel (AID 1159580);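 note: tested at 20 µM; growth read once vehicle control cultures reached saturation at 30 °C; 1 = growth at the plate median or of vehicle wells; lower values mean less growth of the strain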; conditions: S. cerevisiae deletion strains, growth OD, locus YOR106W, strain vam3, stronger effect = lower value
The campaign covered roughly 5,500 compounds. About 2,000 (36%) were called active. Inconclusive results (about 18%) are left out. The list shows a part of the results.
// NB: equality with 1 counts as NO; only normalized growth strictly below is YES

Compound	Category
Clc1cccc(Cl)c1NC1=NCCN1	YES
C=C1C(=O)O[C@@H]2C3O[C@]3(C)CC/C=C(\C)CC[C@@H]12 (stereo partly specified)	YES
Cc1cccc(C)c1NC1=NCCCS1	NO
Cn1c(=O)c2[nH]cnc2n(C)c1=O	NO

###

assay: chemical genetic growth profiling, strain panel (AID 1159580);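 note: tested at 20 µM; growth read once vehicle control cultures reached saturation at 30 °C; 1 = growth at the plate median or of vehicle wells; lower values mean less growth of the strain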; details: S. cerevisiae deletion strains, growth OD, locus YNL183C, strain NPR1, stronger effect = lower value
Screen size: about 5,500 compounds; about 2,000 (36%) were called active. About 18% were inconclusive and are not listed. Some of the results follow.
// NB: equality with 0.9 counts as no; only normalized growth strictly below is yes

Compound	Category
CCCCC(=O)Oc1ccccc1C(=O)O	no
CCCC[C@@H](CC)COC(=O)c1ccccc1O	no
NS(=O)(=O)c1cc2c(cc1Cl)NC(C(Cl)Cl)NS2(=O)=O (stereo not given)	no
CC[N+](CC)(CC)CCOc1cccc(OCC[N+](CC)(CC)CC)c1OCC[N+](CC)(CC)CC	no
COc1ccc2c(c1OC)C(=O)OC2[C@H]1c2c(cc3c(c2OC)OCO3)CCN1C (stereo not given in full)	no
Cc1c(S(=O)(=O)O)oc2c1C(=O)C(=O)c1c-2ccc2c1CCCC2(C)C	no
Cc1ccc(NS(=O)(=O)c2ccc(Cl)cc2)c(N=Cc2cc(Cl)cc(Cl)c2O)c1	yes
C[C@H]1COC2=C1C(=O)C(=O)c1c2ccc2c1CCCC2(C)C	yes
COC(=O)C[C@H]1C(C)(C)C(=O)[C@@H]2CC3=C(CC[C@]4(C)C3=CC(=O)O[C@H]4c3ccoc3)[C@@]1(C)C2=O	no
CC(C)NC[C@H](O)COc1cccc2ccccc12	no
FC(F)(F)c1cccc(-n2c(CSCc3cccc4ccccc34)n[nH]c2=S)c1	no
CC(C)[C@@H]1CC[C@@H](C)C[C@H]1O	no
COc1ccc([C@H]2Oc3cc(OC)cc(OC)c3C[C@H]2O)cc1	no
O=[N+]([O-])c1ccc2oc(C(O)c3cccc(Cl)c3)cc2c1 (stereo not given)	no
CC(=O)Nc1ccc(S(=O)(=O)Nc2ccccc2Oc2ccc(Cl)cc2Cl)cc1	no
N#CC(C#N)=Cc1ccc(-c2ccccc2C(F)(F)F)o1	yes
CC1(C)O[C@H]2[C@H](O)C[C@](O)(C(N)=O)C[C@H]2O1	no
CC(C)COCC(CN(Cc1ccccc1)c1ccccc1)N1CCCC1 (stereo not given)	no
CCOC(=O)c1ccc(O)cc1	no
Cc1coc2c1C(=O)C(=O)c1c-2ccc2c1CCCC2(C)C	yes
O=C(Cn1ccnc1[N+](=O)[O-])NCCO	no
O=c1c2ccccc2[nH]c(=S)n1-c1cccc(C(F)(F)F)c1	yes
CC(=O)OCC[C@H](C)CCC=C(C)C	no
O=[N+]([O-])c1ccc2c(c1)NC(c1ccc([N+](=O)[O-])s1)O2 (stereo not given)	yes
C#CCCCCCCCCCCCC(O)CC(O)CO (stereo not given)	yes
Cc1cccc2c3c(ccc12)C1=C(C(=O)C3=O)C(C)CO1 (stereo not given)	yes
CCCCNc1ccc(C(=O)OCCN(C)C)cc1	no
COC(=O)[C@@H]1OC(=O)[C@H]2O[C@@]23[C@@]1(C)CCC1[C@@]2(C)CCC(=O)C(C)(C)C2C[C@@H](OC(C)=O)[C@]13C (stereo not given in full)	no
COc1c2ccoc2c(OC)c2oc(=O)ccc12	no
ClC1=C(C=Nc2ccc(Cl)cc2)CSc2ccc(Cl)cc21	yes
